target: vascular endothelial growth factor (VEGF)-A, isoform 165 (Homo sapiens, UniProt P15692-4); assay: SPR
PROPERTY NAME: ΔΔG_bind against the parental Fab (kcal/mol)
Report the figure in kcal/mol without appending any unit label.

bH1 Fab variant W^H33-M^H98-D^H99-R^L30b (Fab, V domains shown) VH: EVQLVESGGGLVQPGGSLRLSCAASGFNIKDTWIHWVRQAPGKGLEWVARIYPTNGYTRYADSVKGRFTISADTSKNTAYLQMNSLRAEDTAVYYCSRWGGMDFYAMDYWGQGTLVTVSS VL: DIQMTQSPSSLSASVGDRVTITCRASQDIPRRISGYVAWYQQKPGKAPKLLIYWGSYLYSGVPSRFSGSGSGTDFTLTISSLQPEDFATYYCQQHYTTPPTFGQGTKVEIK ... -1.89
bH1 Fab variant W^H33-W^H98-D^H99-R^L30b (Fab, V domains shown) VH: EVQLVESGGGLVQPGGSLRLSCAASGFNIKDTWIHWVRQAPGKGLEWVARIYPTNGYTRYADSVKGRFTISADTSKNTAYLQMNSLRAEDTAVYYCSRWGGWDFYAMDYWGQGTLVTVSS VL: DIQMTQSPSSLSASVGDRVTITCRASQDIPRRISGYVAWYQQKPGKAPKLLIYWGSYLYSGVPSRFSGSGSGTDFTLTISSLQPEDFATYYCQQHYTTPPTFGQGTKVEIK ... -2.57
bH1 Fab variant W^H33-M^H98-M^H99-R^L30b (Fab, V domains shown) VH: EVQLVESGGGLVQPGGSLRLSCAASGFNIKDTWIHWVRQAPGKGLEWVARIYPTNGYTRYADSVKGRFTISADTSKNTAYLQMNSLRAEDTAVYYCSRWGGMMFYAMDYWGQGTLVTVSS VL: DIQMTQSPSSLSASVGDRVTITCRASQDIPRRISGYVAWYQQKPGKAPKLLIYWGSYLYSGVPSRFSGSGSGTDFTLTISSLQPEDFATYYCQQHYTTPPTFGQGTKVEIK ... -2.27
bH1 Fab variant W^H33-F^H98-D^H99-R^L30b (Fab, V domains shown) VH: EVQLVESGGGLVQPGGSLRLSCAASGFNIKDTWIHWVRQAPGKGLEWVARIYPTNGYTRYADSVKGRFTISADTSKNTAYLQMNSLRAEDTAVYYCSRWGGFDFYAMDYWGQGTLVTVSS VL: DIQMTQSPSSLSASVGDRVTITCRASQDIPRRISGYVAWYQQKPGKAPKLLIYWGSYLYSGVPSRFSGSGSGTDFTLTISSLQPEDFATYYCQQHYTTPPTFGQGTKVEIK ... -2.04

Consider the additional binder presented here.
Look up and report measured ΔΔG_bind against the parental Fab for this entry: bH1 Fab variant W^H33-W^H98-M^H99-R^L30b (Fab, V domains shown) VH: EVQLVESGGGLVQPGGSLRLSCAASGFNIKDTWIHWVRQAPGKGLEWVARIYPTNGYTRYADSVKGRFTISADTSKNTAYLQMNSLRAEDTAVYYCSRWGGWMFYAMDYWGQGTLVTVSS VL: DIQMTQSPSSLSASVGDRVTITCRASQDIPRRISGYVAWYQQKPGKAPKLLIYWGSYLYSGVPSRFSGSGSGTDFTLTISSLQPEDFATYYCQQHYTTPPTFGQGTKVEIK
-2.07

Provenance of the data: paper PMC6748613
